molecules and their reported GI50
System: BT-549 (Homo sapiens)
Experiment: Growth inhibitory activity was determined against BT-549 cancer cell line of Breast cancer
Settings: Homo sapiens, BT-549
endpoint name: GI50 (µM)

molecule=CC(C)CCC[C@@H](C)[C@H]1CC[C@H]2[C@@H]3CC(=O)N4C(=O)C=CCC[C@]4(C)[C@H]3CC[C@]12C endpoint_name=GI50 operator== value_reported=5.07
molecule=C=C(CCCCC#N)[C@H]1CC[C@]2(C)[C@@H]([C@H](C)CCCC(C)C)CC[C@H]2[C@@H]1CC(=O)O endpoint_name=GI50 operator== value_reported=5.62
molecule=CC(C)CCC[C@@H](C)[C@H]1CC[C@H]2[C@@H]3CC(=O)O[C@](C)(CCCCC#N)[C@H]3CC[C@]12C endpoint_name=GI50 operator== value_reported=5.89
molecule="CC(C)CCCC(C)[C@H]1CC[C@H]2[C@H](CC(=O)O)[C@@H](C(C)CCCCC#N)CC[C@]12C (stereo in doubt; 21)" endpoint_name=GI50 operator== value_reported=5.16
molecule=CC(C)CCC[C@@H](C)[C@H]1CC[C@H]2[C@H](CC(=O)O)[C@@H]([C@@]3(C)CCCCC3=O)CC[C@]12C endpoint_name=GI50 operator== value_reported=13
molecule=CC(C)CCC[C@@H](C)[C@H]1CC[C@H]2[C@@H]3CC(=O)O[C@](C)(CCCCC(=O)O)[C@H]3CC[C@]12C endpoint_name=GI50 operator== value_reported=4.19
molecule="CC(C)CCCC(C)[C@H]1CC[C@H]2[C@@H]3CC(=O)O[C@](C)(CC/C=C\\C#N)[C@H]3CC[C@]12C (stereo partly drawn)" endpoint_name=GI50 operator=> value_reported=25
molecule="CC(C)CCCC(C)[C@H]1CC[C@H]2[C@H](CC(=O)O)[C@@H]([C@@]3(C)CC[C@@H](CC#N)O3)CC[C@]12C (stereo partly drawn)" endpoint_name=GI50 operator== value_reported=5.05

----------
molecules and their reported log10 of GI50
Tested on: LOX IMVI
Assay: Growth inhibitory activity was determined against LOX IMVI cancer cell line of melanoma
Assay type: functional, Homo sapiens
Details: Homo sapiens, LOX IMVI
endpoint name: log10 of GI50 (log10 of the value in µM)

molecule="CC(C)CCCC(C)[C@H]1CC[C@H]2[C@H](CC(=O)O)[C@@H](C(C)CCCCC#N)CC[C@]12C (stereo in doubt; 21)" value_reported=0.69
molecule=C/C(=C\CCCC#N)[C@H]1CC[C@]2(C)[C@@H]([C@H](C)CCCC(C)C)CC[C@H]2[C@@H]1CC(=O)O value_reported=0.77
molecule=CC(C)CCC[C@@H](C)[C@H]1CC[C@H]2[C@@H]3CC(=O)N4C(=O)C=CCC[C@]4(C)[C@H]3CC[C@]12C value_reported=-0.08
molecule=C=C(CCCCC#N)[C@H]1CC[C@]2(C)[C@@H]([C@H](C)CCCC(C)C)CC[C@H]2[C@@H]1CC(=O)O value_reported=0.69
molecule="CC(C)CCCC(C)[C@H]1CC[C@H]2[C@@H]3CC(=O)O[C@](C)(CC/C=C\\C#N)[C@H]3CC[C@]12C (stereo partly drawn)" value_reported=0.71
molecule=CC(C)CCC[C@@H](C)[C@H]1CC[C@H]2[C@@H]3CC(=O)O[C@](C)(CCCCC#N)[C@H]3CC[C@]12C value_reported=0.73
molecule="CC(C)CCCC(C)[C@H]1CC[C@H]2[C@H](CC(=O)O)[C@@H]([C@@]3(C)CC[C@@H](CC#N)O3)CC[C@]12C (stereo partly drawn)" value_reported=0.79
molecule=CC(C)CCC[C@@H](C)[C@H]1CC[C@H]2[C@H](CC(=O)O)[C@@H]([C@@]3(C)CCCCC3=O)CC[C@]12C value_reported=1.22
